// remaining at 0.5 h lookup, one value per entry
assay: Stability in rat liver microsomes assessed as compound remaining after 30 mins; format: ADME; details: read-out: Stability
Answer format: numeric, % implied, no suffix.

The following compounds have reported results that may help.
• O=C(NC1CC1)c1ccc(-c2cnc3c(NCC4CCOCC4)cc(Oc4ccccc4O)nn23)cc1 = 21
• N#Cc1ccc(-c2cc(NCC3CCOCC3)c3ncc(-c4ccc(C(=O)NC5CC5)cc4)n3n2)c(N)c1 = 59

Enquiry: Can you look up the measured remaining at 0.5 h of N#Cc1ccc(-c2cn3c(-c4ccc(C(=O)NC5CC5)cc4)cnc3c(NCC3CCOCC3)n2)cc1 for me?
Return: 0

Enquiry: Also, N#Cc1ccc(-c2cc(NCC3CCOCC3)c3ncc(-c4ccc(C(=O)NC5CC5)cc4)n3n2)cc1 please.
Return: 42
